conditions_used: 293.15 K; 101.33 kPa; Liquid; Pulse-echo method
Recorded speed of sound for the following compounds

compound: c1ccncc1
speed of sound, m/s: 1442
--
compound: Cc1cccnc1
speed of sound, m/s: 1445.9
--
compound: Cc1ccncc1
speed of sound, m/s: 1451.1
--
compound: Cc1ccccc1N
speed of sound, m/s: 1622.2
--
compound: CCn1cc[n+](C)c1.F[B-](F)(F)F [1-ethyl-3-methylimidazolium tetrafluoroborate]
speed of sound, m/s: 1631.1
--
compound: Cc1ccccn1
speed of sound, m/s: 1400.5

###

// reported mass density for each item listed
conditions_used: 293.15 K; 101.33 kPa; Liquid; Vibrating tube method
endpoint_label: mass density (kg/m3)

compound: Cc1cccnc1
endpoint_result: 956.581

compound: Cc1ccccc1N
endpoint_result: 998.431

compound: c1ccncc1
endpoint_result: 983.191

compound: CCn1cc[n+](C)c1.F[B-](F)(F)F [1-ethyl-3-methylimidazolium tetrafluoroborate]
endpoint_result: 1283.89

compound: Cc1ccncc1
endpoint_result: 955.099

compound: Cc1ccccn1
endpoint_result: 944.401

###

conditions_used: 308.15 K; 101.33 kPa; Liquid; Pulse-echo method
endpoint_label: speed of sound (m/s)

molecule: Cc1ccccn1 [2-methylpyridine]
endpoint_label: speed of sound
value_units: m/s
endpoint_result: 1339.9
--
molecule: Cc1ccncc1 [4-methylpyridine]
endpoint_label: speed of sound
value_units: m/s
endpoint_result: 1389.9
--
molecule: Cc1cccnc1 [3-methylpyridine]
endpoint_label: speed of sound
value_units: m/s
endpoint_result: 1384
--
molecule: c1ccncc1 [pyridine]
endpoint_label: speed of sound
value_units: m/s
endpoint_result: 1377.1
--
molecule: Cc1ccccc1N [2-methylaniline]
endpoint_label: speed of sound
value_units: m/s
endpoint_result: 1558.2
--
molecule: CCn1cc[n+](C)c1.F[B-](F)(F)F [1-ethyl-3-methylimidazolium tetrafluoroborate]
endpoint_label: speed of sound
value_units: m/s
endpoint_result: 1596.3

###

conditions_used: 298.15 K; 101.33 kPa; Liquid; Pulse-echo method

compound: Cc1cccnc1
speed of sound (m/s): 1424

compound: Cc1ccccn1
speed of sound (m/s): 1380.1

compound: c1ccncc1
speed of sound (m/s): 1417.8

compound: Cc1ccccc1N
speed of sound (m/s): 1602.3

compound: CCn1cc[n+](C)c1.F[B-](F)(F)F [1-ethyl-3-methylimidazolium tetrafluoroborate]
speed of sound (m/s): 1619.4

compound: Cc1ccncc1
speed of sound (m/s): 1431.5

###

protocol_text: molar heat capacity at constant pressure
conditions_used: 293.15 K; 101.33 kPa; Liquid; Small sample (50 mg) DSC
Kindly apply the following: y if molar heat capacity at constant pressure is less than 200 J/K/mol, n in every other case.

compound: c1ccncc1 [pyridine]
class_name: y

compound: Cc1ccccc1N [2-methylaniline]
class_name: n

compound: Cc1cccnc1 [3-methylpyridine]
class_name: y

compound: Cc1ccccn1 [2-methylpyridine]
class_name: y

compound: CCn1cc[n+](C)c1.F[B-](F)(F)F [1-ethyl-3-methylimidazolium tetrafluoroborate]
class_name: n

compound: Cc1ccncc1 [4-methylpyridine]
class_name: y

###

conditions_used: 303.15 K; 101.33 kPa; Liquid; Vibrating tube method
Respond with class 1 for mass density values of 1000 kg/m3 and above, class 0 for values below.

molecule: Cc1ccccn1 [2-methylpyridine]
class_name: class 0
//
molecule: CCn1cc[n+](C)c1.F[B-](F)(F)F [1-ethyl-3-methylimidazolium tetrafluoroborate]
class_name: class 1
//
molecule: Cc1ccncc1 [4-methylpyridine]
class_name: class 0
//
molecule: Cc1cccnc1 [3-methylpyridine]
class_name: class 0

###

conditions_used: 308.15 K; 101.33 kPa; Liquid; Vibrating tube method
# mass density per entry

compound: Cc1ccccn1
value_units: kg/m3
mass density: 930.414
//
compound: CCn1cc[n+](C)c1.F[B-](F)(F)F [1-ethyl-3-methylimidazolium tetrafluoroborate]
value_units: kg/m3
mass density: 1272.07
//
compound: Cc1cccnc1
value_units: kg/m3
mass density: 942.831
//
compound: Cc1ccccc1N
value_units: kg/m3
mass density: 986.064
//
compound: Cc1ccncc1
value_units: kg/m3
mass density: 940.821
//
compound: c1ccncc1
value_units: kg/m3
mass density: 968.166

###

conditions_used: 303.15 K; 101.33 kPa; Liquid; Pulse-echo method
Reported speed of sound values for a set of compounds

compound: CCn1cc[n+](C)c1.F[B-](F)(F)F [1-ethyl-3-methylimidazolium tetrafluoroborate]
speed of sound, m/s: 1607.6
--
compound: c1ccncc1
speed of sound, m/s: 1398
--
compound: Cc1ccncc1
speed of sound, m/s: 1410.7
--
compound: Cc1ccccc1N
speed of sound, m/s: 1577.7
--
compound: Cc1ccccn1
speed of sound, m/s: 1361
--
compound: Cc1cccnc1
speed of sound, m/s: 1404.1

###

conditions_used: 298.15 K; 101.33 kPa; Liquid; Vibrating tube method
Classify: yes when mass density is strictly less than 1000 kg/m3; no when mass density is not.

compound: CCn1cc[n+](C)c1.F[B-](F)(F)F [1-ethyl-3-methylimidazolium tetrafluoroborate]
class_name: no

compound: Cc1cccnc1 [3-methylpyridine]
class_name: yes

compound: Cc1ccccn1 [2-methylpyridine]
class_name: yes

compound: Cc1ccncc1 [4-methylpyridine]
class_name: yes

###

protocol_text: molar heat capacity at constant pressure
conditions_used: 298.15 K; 101.33 kPa; Liquid; Small sample (50 mg) DSC
The following compounds are shown together with reported molar heat capacity at constant pressure values.
endpoint_label: molar heat capacity at constant pressure (J/K/mol)

compound: Cc1cccnc1
endpoint_result: 158.75
//
compound: CCn1cc[n+](C)c1.F[B-](F)(F)F [1-ethyl-3-methylimidazolium tetrafluoroborate]
endpoint_result: 305.35
//
compound: Cc1ccccn1
endpoint_result: 158.86
//
compound: Cc1ccncc1
endpoint_result: 158.52
//
compound: Cc1ccccc1N
endpoint_result: 217.16
//
compound: c1ccncc1
endpoint_result: 131.74
